Biological target: furin, P09958;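 also: purified furin at 1:10 enzyme:substrate in 50 mM HEPES pH 7.5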
Sequence (P09958 whole entry): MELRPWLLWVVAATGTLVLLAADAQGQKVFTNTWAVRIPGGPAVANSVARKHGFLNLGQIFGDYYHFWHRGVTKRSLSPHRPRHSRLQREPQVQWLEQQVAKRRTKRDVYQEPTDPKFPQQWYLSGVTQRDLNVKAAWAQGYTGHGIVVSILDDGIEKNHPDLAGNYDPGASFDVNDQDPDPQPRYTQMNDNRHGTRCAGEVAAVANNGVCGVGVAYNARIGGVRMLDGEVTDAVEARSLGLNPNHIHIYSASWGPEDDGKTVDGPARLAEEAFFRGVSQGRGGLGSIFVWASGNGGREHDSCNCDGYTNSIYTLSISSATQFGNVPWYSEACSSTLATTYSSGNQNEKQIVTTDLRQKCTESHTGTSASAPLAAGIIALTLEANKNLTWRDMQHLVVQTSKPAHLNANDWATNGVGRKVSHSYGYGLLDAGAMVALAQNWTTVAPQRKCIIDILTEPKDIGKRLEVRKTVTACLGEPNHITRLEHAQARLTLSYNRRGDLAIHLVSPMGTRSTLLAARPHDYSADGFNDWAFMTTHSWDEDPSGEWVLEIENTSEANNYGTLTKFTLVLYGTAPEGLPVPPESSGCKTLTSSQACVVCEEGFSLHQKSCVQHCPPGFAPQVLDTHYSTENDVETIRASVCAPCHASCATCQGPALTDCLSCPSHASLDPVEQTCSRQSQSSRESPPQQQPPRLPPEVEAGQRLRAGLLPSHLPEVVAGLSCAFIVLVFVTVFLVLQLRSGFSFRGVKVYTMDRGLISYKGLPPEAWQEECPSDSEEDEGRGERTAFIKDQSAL
Assay: furin cleavage Z-score vs untreated control; higher = more cleavage, active = 3.5 or more, inactive = 1 or less, 8 variable residues between constant flanks
Details: 30 min
Some of the results follow. The true hit rate is not given.
Rule: yes for furin cleavage Z-score not less than 0.2, no for anything less.

Consider the following illustrative entries.
>  <construct sequence>
CAVSKRHVRIAGNASASA [FS-2114]

>  <group>
yes

$$$$
>  <construct sequence>
CANLKCPCQVAGNASASA [HC1215]

>  <group>
no

$$$$
>  <construct sequence>
CADSHYQDVLAGNASASA [HC1401]

>  <group>
no

$$$$
>  <construct sequence>
CARSNRQLGIAGNASASA [FS-2185]

>  <group>
yes

$$$$
>  <construct sequence>
CAEVPCHFPSAGNASASA [HC2367]

>  <group>
yes

$$$$
>  <construct sequence>
CAPCTPLPAPAGNASASA [HC1195]

>  <group>
no

$$$$

Now for a further sequence.
Q. API: above_or_equal(metric=furin cleavage Z-score, cutoff=0.2) for item CALKKRGILSAGNASASA [FS-2409]
A. yes

Every entry's value here was drawn from the supplement of paper PMC3545927.
